# experimental_parameters: in ethanol, 318.55 K
property_label: solubility (mole fraction)
Returns: the value as a bare number; no unit string appended.

Just so you know, measured solubility (mole fraction) for O=[PH](O)c1ccccc1 came out at 0.356

###

# experimental_parameters: in methanol, 293.55 K
property_label: solubility (mole fraction)
Returns: the value as a bare number; no unit string appended.

Just so you know, measured solubility (mole fraction) for O=[PH](O)c1ccccc1 came out at 0.173

###

# experimental_parameters: in ethanol, 323.15 K
property_label: solubility (mole fraction)
Returns: the value as a bare number; no unit string appended.

Just so you know, measured solubility (mole fraction) for CP(=O)(O)c1ccccc1 came out at 0.734

Source listed as BigSolDB 2.1.
